Ref: patent US10646538B2

Assay: Aggregation behaviour of tripeptides dissolved in water at pH 7
Assay type: physicochemical
Conditions: water at pH 7, 30 mmol/L
Method: Tripeptides were dissolved in water by sonication and vortexing, followed by bringing the pH to 7.2±0.1 by dropwise addition of 0.25 M NaOH solution to a final concentration of 30 mmol/L. These were diluted to 10 mmol/L for DLS and NMR experiments. Note that the KYF gel could also be prepared by direct dissolution into a 0.1 M phosphate buffer at pH 7. Characterization of the resulting samples took places at least 24 hours after sample preparation. […]
Peptide text beside a SMILES is read from it.
Measure Name: aggregation behavior on dissolving in water

Compound: CC[C@H](C)[C@H](NC(=O)[C@H](Cc1ccc(O)cc1)NC(=O)[C@@H](N)Cc1ccccc1)C(=O)O [FYI] (H-Phe-Tyr-Ile-OH)
Recorded Value: precipitated
//
Compound: CC[C@H](C)[C@H](N)C(=O)N[C@@H](Cc1ccc(O)cc1)C(=O)N[C@@H](Cc1ccccc1)C(=O)O [IYF] (H-Ile-Tyr-Phe-OH)
Recorded Value: precipitated
//
Compound: N[C@@H](Cc1ccccc1)C(=O)N[C@@H](Cc1c[nH]cn1)C(=O)N[C@@H](Cc1ccccc1)C(=O)O [FHF] (H-Phe-His-Phe-OH)
Recorded Value: suspensions
//
Compound: O=C(O)[C@H](Cc1ccccc1)NC(=O)[C@H](Cc1ccccc1)NC(=O)[C@@H]1CCCN1 [PFF] (H-Pro-Phe-Phe-OH)
Recorded Value: suspensions

* * *

Assay: Dynamic light scattering (DLS)
Assay type: physicochemical
Settings: 10 mM at pH 7, 25° C.
Peptide text beside a SMILES is read from it.
Measure Name: average hydrodynamic radius / relative size of the aggregates (DLS) (μm)

Molecule: NCCCC[C@H](N)C(=O)N[C@@H](Cc1ccccc1)C(=O)N[C@@H](CC(=O)O)C(=O)O [KFD] (H-Lys-Phe-Asp-OH)
Measure Unit: μm
Recorded Value: 0.13

A: NCC(=O)NCC(=O)NCC(=O)O [GGG, reference compound] (H-Gly-Gly-Gly-OH)
B: NCCCC[C@H](N)C(=O)N[C@@H](Cc1ccc(O)cc1)C(=O)N[C@@H](Cc1ccccc1)C(=O)O [KYF] (H-Lys-Tyr-Phe-OH)
C: O=C(O)[C@H](Cc1ccccc1)NC(=O)[C@H](Cc1ccccc1)NC(=O)[C@@H]1CCCN1 [PFF] (H-Pro-Phe-Phe-OH)
Request: I would appreciate it if you could sort these 3 molecules by average hydrodynamic radius / relative size of the aggregates (DLS), starting from the smallest number. // list labels; follow requested order
Result: A, B, C

* * *

Experiment: Aggregation behaviour of tripeptides dissolved in water at pH 7
Type: physicochemical
Details: water / D2O
Peptide text beside a SMILES is read from it.
Measure Name: solubility

Compound: CC[C@H](C)[C@H](NC(=O)[C@H](Cc1ccc(O)cc1)NC(=O)[C@@H](N)Cc1ccccc1)C(=O)O [FYI] (H-Phe-Tyr-Ile-OH)
Measure Name: solubility
Recorded Value: poor solubility

Compound: N[C@@H](Cc1ccccc1)C(=O)N[C@@H](Cc1c[nH]cn1)C(=O)N[C@@H](Cc1ccccc1)C(=O)O [FHF] (H-Phe-His-Phe-OH)
Measure Name: solubility
Recorded Value: poor solubility

Compound: CC[C@H](C)[C@H](N)C(=O)N[C@@H](Cc1ccc(O)cc1)C(=O)N[C@@H](Cc1ccccc1)C(=O)O [IYF] (H-Ile-Tyr-Phe-OH)
Measure Name: solubility
Recorded Value: poor solubility
